target: eukaryotic initiation factor (elF4E) (Homo sapiens); experiment: Assay of binding ability to eukaryotic initiation factor (elF4E), Biacore T100; conditions: cap analog to elF4E protein; running buffer pH 6.0 or 7.4; read-out: Binding constant (converted)
Quantity Measured: Kd (nM)
Use nM as the unit, but write only the number.

[
  {
    "Compound": "COC1[C@@H](OP(=O)(O)/C=C/[C@H]2O[C@@H](n3cnc4c(=O)[nH]c(N)nc43)C(O)[C@H]2O)[C@@H](COP(=O)(O)OP(=O)(O)OP(=O)(O)/C=C\\[C@H]2O[C@@H](n3c[n+](C)c4c(=O)[nH]c(N)nc43)[C@@H](O)C2O)O[C@H]1n1cnc2c(N)ncnc21 (stereo partly shown) [Example 4]",
    "Test Value": 377
  },
  {
    "Compound": "COC1C(OP(=O)(O)OC[C@H]2O[C@@H](n3cnc4c(=O)[nH]c(N)nc43)C(O)C2O)[C@@H](COP(=O)(O)OP(=O)(O)OP(=O)(O)/C=C/[C@H]2O[C@@H](n3c[n+](C)c4c(=O)[nH]c(N)nc43)C(O)C2CNC(C)=O)O[C@H]1n1cnc2c(N)ncnc21 (stereo partly shown) [Compound 12]",
    "Test Value": 214
  },
  {
    "Compound": "COC1C(OP(=O)(O)OC[C@H]2O[C@@H](n3ccc(=O)[nH]c3=O)C(O)C2O)[C@@H](COP(=O)(O)OP(=O)(O)OP(=O)(O)/C=C/[C@H]2O[C@@H](n3c[n+](C)c4c(=O)[nH]c(N)nc43)C(O)C2CNC(C)=O)O[C@H]1n1cnc2c(N)ncnc21 (stereo partly shown) [Compound 17]",
    "Test Value": 222
  }
]

Could you now look at the following compound, please?
Respond only with Kd recorded for COC1C(OP(=O)(O)OC[C@H]2O[C@@H](n3cnc4c(=O)[nH]c(N)nc43)C(O)C2O)[C@@H](/C=C/P(=O)(O)OP(=O)(O)OP(=O)(O)OC[C@H]2O[C@@H](n3c[n+](C)c4c(=O)[nH]c(N)nc43)C(O)C2O)O[C@H]1n1cnc2c(N)ncnc21 (stereo partly shown) [Example 3] 240

====

target: T7 RNA polymerase (Escherichia phage T7, UniProt P00573); experiment: mRNA in-vitro transcription yield with cap analog (T7 IVT, Nanodrop One quantification); assay type: biochemical; settings: mRNA from 20 μL IVT system, 1 μl 100 mM cap analog, 1 μg template, 37° C. 2 h
Sequence (P00573 whole entry): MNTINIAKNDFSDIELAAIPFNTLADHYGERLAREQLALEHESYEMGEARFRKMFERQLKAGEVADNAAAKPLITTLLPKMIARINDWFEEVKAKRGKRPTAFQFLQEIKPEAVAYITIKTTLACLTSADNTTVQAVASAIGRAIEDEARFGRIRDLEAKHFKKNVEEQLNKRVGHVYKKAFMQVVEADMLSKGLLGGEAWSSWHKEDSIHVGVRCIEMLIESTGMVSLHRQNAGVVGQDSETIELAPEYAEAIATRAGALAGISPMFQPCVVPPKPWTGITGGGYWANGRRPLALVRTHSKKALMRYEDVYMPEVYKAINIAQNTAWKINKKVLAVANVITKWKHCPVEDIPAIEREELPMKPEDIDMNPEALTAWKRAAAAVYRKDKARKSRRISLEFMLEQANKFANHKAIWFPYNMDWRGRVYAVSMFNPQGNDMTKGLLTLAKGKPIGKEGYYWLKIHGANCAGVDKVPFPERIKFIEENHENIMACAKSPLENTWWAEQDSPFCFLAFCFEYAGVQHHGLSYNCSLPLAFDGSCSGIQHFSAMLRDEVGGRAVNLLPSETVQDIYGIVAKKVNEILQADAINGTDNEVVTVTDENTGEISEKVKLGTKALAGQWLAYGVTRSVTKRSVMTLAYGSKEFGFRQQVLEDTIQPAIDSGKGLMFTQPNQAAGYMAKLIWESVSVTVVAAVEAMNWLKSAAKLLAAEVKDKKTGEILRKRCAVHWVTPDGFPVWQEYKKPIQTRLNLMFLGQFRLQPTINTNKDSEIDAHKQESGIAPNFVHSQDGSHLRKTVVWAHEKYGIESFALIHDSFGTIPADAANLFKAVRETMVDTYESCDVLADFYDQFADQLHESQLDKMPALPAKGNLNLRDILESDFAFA
Quantity Measured: Yield (µg)
# output: bare number, implied unit µg

Give reported Yield value for COC1[C@@H](OP(=O)(O)/C=C/[C@H]2O[C@@H](n3cnc4c(=O)[nH]c(N)nc43)C(O)[C@H]2O)[C@@H](COP(=O)(O)OP(=O)(O)OP(=O)(O)/C=C\[C@H]2O[C@@H](n3c[n+](C)c4c(=O)[nH]c(N)nc43)[C@@H](O)C2O)O[C@H]1n1cnc2c(N)ncnc21 (stereo partly shown) 106

====

target: eukaryotic initiation factor (elF4E) (Homo sapiens, UniProt P06730); assay: Assay of binding ability to eukaryotic initiation factor (elF4E), Biacore T100; conditions: cap analog to elF4E protein; running buffer pH 6.0 or 7.4; read-out: Binding constant (converted)
Sequence (P06730 whole entry): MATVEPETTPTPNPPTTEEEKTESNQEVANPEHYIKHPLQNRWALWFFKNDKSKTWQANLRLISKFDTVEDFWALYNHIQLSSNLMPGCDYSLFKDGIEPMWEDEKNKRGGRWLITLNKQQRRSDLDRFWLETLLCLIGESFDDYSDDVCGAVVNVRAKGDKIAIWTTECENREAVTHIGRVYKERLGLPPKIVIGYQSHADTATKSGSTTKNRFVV
Quantity Measured: Kd (nM)
Numbers only here, please. The scale is nM.

Solved cases (6 shown):
[
  {
    "Compound": "COC1[C@@H](OP(=O)(O)/C=C/[C@H]2O[C@@H](n3cnc4c(=O)[nH]c(N)nc43)C(O)[C@H]2O)[C@@H](/C=C\\P(=O)(O)OP(=O)(O)OP(=O)(O)OC[C@H]2O[C@@H](n3c[n+](C)c4c(=O)[nH]c(N)nc43)[C@@H](O)C2O)O[C@H]1n1cnc2c(N)ncnc21 (stereo partly shown)",
    "Quantity Measured": "Kd",
    "Test Value": 362
  },
  {
    "Compound": "COC1[C@@H](OP(=O)(O)OC[C@H]2O[C@@H](n3cnc4c(=O)[nH]c(N)nc43)C(O)[C@H]2O)[C@@H](/C=C\\P(=O)(O)OP(=O)(O)OP(=O)(O)/C=C\\[C@H]2O[C@@H](n3c[n+](C)c4c(=O)[nH]c(N)nc43)[C@@H](O)C2O)O[C@H]1n1cnc2c(N)ncnc21 (stereo partly shown)",
    "Quantity Measured": "Kd",
    "Test Value": 395
  },
  {
    "Compound": "COC1C(OP(=O)(O)OC[C@H]2O[C@@H](n3cnc4c(=O)[nH]c(N)nc43)C(O)C2O)[C@@H](COP(=O)(O)OP(=O)(O)OP(=O)(O)/C=C/[C@H]2O[C@@H](n3c[n+](C)c4c(=O)[nH]c(N)nc43)C(O)C2O)O[C@H]1n1cnc2c(N)ncnc21 (stereo partly shown)",
    "Quantity Measured": "Kd",
    "Test Value": 216
  },
  {
    "Compound": "COCCOC1C(O)[C@H](n2c[n+](C)c3c(=O)[nH]c(N)nc32)O[C@@H]1/C=C/P(=O)(O)OP(=O)(O)OP(=O)(O)OC[C@H]1O[C@@H](n2cnc3c(N)ncnc32)C(OC)C1OP(=O)(O)OC[C@H]1O[C@@H](n2cnc3c(=O)[nH]c(N)nc32)C(O)C1O (stereo partly shown)",
    "Quantity Measured": "Kd",
    "Test Value": 218
  },
  {
    "Compound": "COC1C(OP(=O)(O)/C=C/[C@H]2O[C@@H](n3cnc4c(=O)[nH]c(N)nc43)C(O)C2O)[C@@H](COP(=O)(O)OP(=O)(O)OP(=O)(O)OC[C@H]2O[C@@H](n3c[n+](C)c4c(=O)[nH]c(N)nc43)C(O)C2O)O[C@H]1n1cnc2c(N)ncnc21 (stereo partly shown)",
    "Quantity Measured": "Kd",
    "Test Value": 313
  },
  {
    "Compound": "COC1C(OP(=O)(O)OC[C@H]2O[C@@H](n3cnc4c(=O)[nH]c(N)nc43)C(O)C2O)[C@@H](/C=C\\P(=O)(O)OP(=O)(O)OP(=O)(O)OC[C@H]2O[C@@H](n3c[n+](C)c4c(=O)[nH]c(N)nc43)C(O)C2CNC(C)=O)O[C@H]1n1cnc2c(N)ncnc21 (stereo partly shown)",
    "Quantity Measured": "Kd",
    "Test Value": 224
  }
]

Next item in the queue.
Give the observed Kd of COC1[C@@H](OP(=O)(O)/C=C/[C@H]2O[C@@H](n3cnc4c(=O)[nH]c(N)nc43)C(O)[C@H]2O)[C@@H](/C=C\P(=O)(O)OP(=O)(O)OP(=O)(O)/C=C\[C@H]2O[C@@H](n3c[n+](C)c4c(=O)[nH]c(N)nc43)[C@@H](O)C2O)O[C@H]1n1cnc2c(N)ncnc21 (stereo partly shown) for eukaryotic initiation factor (elF4E) (Homo sapiens, UniProt P06730). 1160
